# STUDY TARGET: HLA-B*27:05
# ASSAY TEXT: IEDB peptide-MHC binding, purified MHC/direct/fluorescence; filed as Kd, often an IC50 or EC50 that approximates it; bounds were set here for any values at or beyond the usual limits of such assays
# PROTOCOL CONDITIONS: source organism: Francisella tularensis subsp. holarctica LVS
TEST READOUT: Kd

Recorded result, KRLSVNQKY , Kd: 62.2 nM

---

# STUDY TARGET: HLA-A*68:02
# ASSAY TEXT: IEDB peptide-MHC binding, purified MHC/direct/fluorescence; filed as Kd, often an IC50 or EC50 that approximates it; bounds were set here for any values at or beyond the usual limits of such assays
# PROTOCOL CONDITIONS: source organism: Orthomarburgvirus marburgense
TEST READOUT: Kd

Entry under test: LEHGLYPQL . Its Kd was ≥ 20 µM

---

Entries and their pKd
# STUDY TARGET: HLA-A*68:02
# ASSAY TEXT: IEDB peptide-MHC binding, purified MHC/direct/fluorescence; filed as Kd, often an IC50 or EC50 that approximates it; bounds were set here for any values at or beyond the usual limits of such assays
# PROTOCOL CONDITIONS: source organism: Cowpox virus
pKd: −log10 of the molar value.

YHRPLTGYM    ≤ 4.70

Value of measured pKd for the entry VYSFDESSF : ≤ 4.70

---

# STUDY TARGET: HLA-B*08:01
# ASSAY TEXT: IEDB peptide-MHC binding, purified MHC/direct/fluorescence; filed as Kd, often an IC50 or EC50 that approximates it; bounds were set here for any values at or beyond the usual limits of such assays
# PROTOCOL CONDITIONS: source organism: Yersinia pestis
TEST READOUT: pKd
# pKd: negative log10 of molar concentration; output just the value

Sample QQSEARRML ; pKd observed: 5.19

---

# STUDY TARGET: HLA-A*01:01
# ASSAY TEXT: IEDB peptide-MHC binding, purified MHC/direct/fluorescence; filed as Kd, often an IC50 or EC50 that approximates it; bounds were set here for any values at or beyond the usual limits of such assays
# PROTOCOL CONDITIONS: source organism: Influenza A virus (A/tiger/Thailand/CU-T4/04(H5N1))
TEST READOUT: Kd

Field Kd (entry TMLYNKMEF ) reads ≥ 20 µM

---

# STUDY TARGET: HLA-A*02:01
# ASSAY TEXT: IEDB peptide-MHC binding, purified MHC/competitive/fluorescence; bounds were set here for any values at or beyond the usual limits of such assays
# PROTOCOL CONDITIONS: source organism: Vaccinia virus
TEST READOUT: IC50
Report field: quantity (unit follows the number).

Recorded result, IDILRSLET , IC50: 44.3 µM

---

# STUDY TARGET: HLA-A*26:01
# ASSAY TEXT: IEDB peptide-MHC binding, purified MHC/competitive/radioactivity; filed as Kd, often an IC50 or EC50 that approximates it; bounds were set here for any values at or beyond the usual limits of such assays
# PROTOCOL CONDITIONS: source organism: Mammarenavirus brazilense
TEST READOUT: pKd
The read-out pKd is expressed as -log10 of concentration in moles per litre.

The sequence identified as ESAQPGLLSY registered its pKd at 7.84

---

# STUDY TARGET: HLA-A*33:01
# ASSAY TEXT: IEDB peptide-MHC binding, purified MHC/competitive/radioactivity; filed as Kd, often an IC50 or EC50 that approximates it; bounds were set here for any values at or beyond the usual limits of such assays
# PROTOCOL CONDITIONS: source organism: Mammarenavirus juninense
TEST READOUT: Kd (µM)
Report the value in µM with no unit label.

Reported Kd of MVGLLSNSPH : 4.28

---

# STUDY TARGET: HLA-B*46:01
# ASSAY TEXT: IEDB peptide-MHC binding, purified MHC/competitive/fluorescence; filed as Kd, often an IC50 or EC50 that approximates it; bounds were set here for any values at or beyond the usual limits of such assays
# PROTOCOL CONDITIONS: source organism: Vibrio parahaemolyticus AN-5034
TEST READOUT: Kd (µM)
Expressed in µM, but write only the number.

Kd reading for FAAWIQQTY : 0.125

---

# STUDY TARGET: HLA-A*26:01
# ASSAY TEXT: IEDB peptide-MHC binding, purified MHC/direct/fluorescence; filed as Kd, often an IC50 or EC50 that approximates it; bounds were set here for any values at or beyond the usual limits of such assays
# PROTOCOL CONDITIONS: source organism: West Nile virus
Kd values by entry
Give a bare numeral; the unit µM is implied.

STKAACPTM    15.7

Continue with the sequence presented below.
// field: Kd; key: ETPQGLAKI ; value = 5.56

---

Here, each record is paired with measured Kd data.
# STUDY TARGET: HLA-A*02:02
# ASSAY TEXT: IEDB peptide-MHC binding, purified MHC/competitive/radioactivity; filed as Kd, often an IC50 or EC50 that approximates it; bounds were set here for any values at or beyond the usual limits of such assays
# PROTOCOL CONDITIONS: source organism: Vaccinia virus WR
The reply should contain only the number, in nM.

Here are 8 sequences together with their reported answers.
VLLPFYETL    4060
NTTTFITVLT    1960
FTDCRTIDA    10900
VQLSNNKYVL    288
IMECSRMLDT    5240
FITVLTSVDI    1420
MMLVPLITV    1020
YLYNKYSFKL    0.109

Per the records, this sequence ( SVKYYGRST ) has Kd equal to 6790

Lookup result for ETLPELNLSL ; measured Kd: 52.3

Measured Kd of VLEKKVCAI : 14400

Looking up FISSFLLPLT , I found its Kd recorded as 38.6

# Kd of FQESFYEDIA = 2560

---

# STUDY TARGET: HLA-B*83:01
# ASSAY TEXT: IEDB peptide-MHC binding, purified MHC/competitive/fluorescence; filed as Kd, often an IC50 or EC50 that approximates it; bounds were set here for any values at or beyond the usual limits of such assays
# PROTOCOL CONDITIONS: source organism: Escherichia coli O139:H28 str. E24377A
pKd: −log10 of the molar value.
TEST READOUT: pKd

Entry REWGWRIPF ; pKd = ≤ 5.30

---

# STUDY TARGET: HLA-A*03:01
# ASSAY TEXT: IEDB peptide-MHC binding, purified MHC/competitive/fluorescence; bounds were set here for any values at or beyond the usual limits of such assays
# PROTOCOL CONDITIONS: source organism: Sudan ebolavirus
TEST READOUT: pIC50
pIC50 here: minus log base 10 of the concentration, concentration in moles per litre.

The sequence listed as STDIPSATK shows pIC50 equal to 4.18

---

# STUDY TARGET: HLA-B*39:01
# ASSAY TEXT: IEDB peptide-MHC binding, purified MHC/direct/fluorescence; filed as Kd, often an IC50 or EC50 that approximates it; bounds were set here for any values at or beyond the usual limits of such assays
# PROTOCOL CONDITIONS: source organism: Mycobacterium tuberculosis
TEST READOUT: pKd
Friendly reminder that pKd comes from taking -log10 of the concentration in mol/L.

Recorded pKd (sequence FHSRFVQAL ): 7.40

---

Measured Kd, listed per entry for reference.
# STUDY TARGET: HLA-A*02:06
# ASSAY TEXT: IEDB peptide-MHC binding, purified MHC/competitive/radioactivity; filed as Kd, often an IC50 or EC50 that approximates it; bounds were set here for any values at or beyond the usual limits of such assays
# PROTOCOL CONDITIONS: source organism: Dengue virus 3 Martinique/1243/1999
# number only, unit nM dropped from output

LLLMRTSWAL    13.3

What the record says about KQLGQVMLLV : Kd is 5.78

---

# STUDY TARGET: HLA-A*01:01
# ASSAY TEXT: IEDB peptide-MHC binding, purified MHC/direct/fluorescence; filed as Kd, often an IC50 or EC50 that approximates it; bounds were set here for any values at or beyond the usual limits of such assays
# PROTOCOL CONDITIONS: source organism: Giardia intestinalis
pKd: −log10 of the molar value.
TEST READOUT: pKd

Short answer for RTMPLSRFT : pKd was ≤ 4.70

---

# STUDY TARGET: HLA-B*15:01
# ASSAY TEXT: IEDB peptide-MHC binding, purified MHC/direct/fluorescence; filed as Kd, often an IC50 or EC50 that approximates it; bounds were set here for any values at or beyond the usual limits of such assays
# PROTOCOL CONDITIONS: source organism: Bacillus anthracis str. 'Ames Ancestor'
pKd: −log10 of the molar value.
TEST READOUT: pKd

Value of pKd reported for the sequence TKAGMAQYL is ≤ 4.70
